Origin of measurements: PubChem BioAssay (NCI)

- Tested on: A498 renal
- Test description: NCI tumour cell line growth inhibition, 48 h
Endpoint: TGI

Use these answered entries as a reference point.
[[record]]
molecule = "CCCCCn1sc(=O)n(Cc2ccc(CNC(=O)OCc3ccc4cccc(O)c4n3)cc2)c1=O"
endpoint = "TGI"
result = "4.58 µM"

[[record]]
molecule = "Brc1ccc(-c2cn3ccncc3n2)cc1"
endpoint = "TGI"
result = "> 100 µM"

[[record]]
molecule = "Cc1cc(N(CCC#N)CCC#N)ccc1/C=C1/N=C(c2ccccc2)N(N)C1=O"
endpoint = "TGI"
result = "> 100 µM"


Prompt line: Need TGI of CC(C)(C)OC(=O)NCCC1CN(C(=O)c2ccccc2)c2ccccc21 (stereo unspecified) , thanks.
Response line: > 100 µM

Prompt line: Need TGI of COc1ccc(/C=N/NC(=O)Cn2c(-c3ccc(S(C)(=O)=O)cc3)nc3cc(Cl)ccc32)cc1 , thanks.
Response line: 3.65 µM

Prompt line: Need TGI of C#CCOc1cccc(Nc2ncnc3c(NC(=O)CCl)cccc23)c1 , thanks.
Response line: > 100 µM

---

Item-by-item account of TGI
- Tested on: LOX IMVI melanoma
- Test description: NCI tumour cell line growth inhibition, 48 h

Use these answered entries as a reference point.
[[record]]
compound = "CC(C)=CCC/C(C)=C/CC/C(C)=C/CC/C=C(\\C)CC/C=C(\\C)CCC(=O)Nc1ccn(C2OC(CO)C(O)C2(F)F)c(=O)n1 (centres undefined)"
endpoint = "TGI"
result = "14.5 µM"

[[record]]
compound = "COc1cccc(NC(=O)C(C#N)=C(SC)SC)c1"
endpoint = "TGI"
result = "> 100 µM"

[[record]]
compound = "C[C@@H]1O[C@@H](O[C@H]2CC[C@@]3(C)[C@H](CCC4[C@@H]3C(O)C[C@]3(C)[C@@H](c5ccc(=O)oc5)CC[C@]43O)C2)[C@H](O)[C@H](O)[C@H]1O (some centres undefined)"
endpoint = "TGI"
result = "0.0101 µM"

[[record]]
compound = "N/N=C1\\CC(=O)NC(=O)N1"
endpoint = "TGI"
result = "> 100 µM"

[[record]]
compound = "OC1(c2ccccc2)CSC2=Nc3ccccc3C3CCN1N23 (centres undefined)"
endpoint = "TGI"
result = "36.9 µM"

[[record]]
compound = "CC1(C)N=C(N)N=C(N)N1c1ccc(CCCCc2ccc(S(=O)(=O)F)cc2)c(Cl)c1"
endpoint = "TGI"
result = "15.3 µM"


Prompt line: Hi! What's the reported TGI for Cc1cc2c(c(C(=O)O)c1C)-c1cccc(F)c1C2=O on LOX IMVI melanoma?
Response line: > 100 µM

Prompt line: Hi! What's the reported TGI for CC1(C)C2CCC13CS(=O)(=O)N1O[C@]13C(=O)O2 (some centres undefined) on LOX IMVI melanoma?
Response line: > 100 µM

Prompt line: Hi! What's the reported TGI for CC(C)(C)c1cc(C2COC(c3cc(C(C)(C)C)c(O)c(C(C)(C)C)c3)CO2)cc(C(C)(C)C)c1O (centres undefined) on LOX IMVI melanoma?
Response line: > 100 µM

Prompt line: Hi! What's the reported TGI for c1ccc(P(=Nc2ccccc2N=P(c2ccccc2)(c2ccccc2)c2ccccc2)(c2ccccc2)c2ccccc2)cc1 on LOX IMVI melanoma?
Response line: 13.9 µM

Prompt line: Hi! What's the reported TGI for COc1ccc(C(=O)c2[nH]c(Nc3ccc(Cl)cc3)c(C(=S)Nc3ccccc3)c2N)cc1 on LOX IMVI melanoma?
Response line: > 100 µM

Prompt line: Hi! What's the reported TGI for O=C(Nc1cccc(Nc2ncc(Br)c(NCCc3cnc[nH]3)n2)c1)N1CCCC1 on LOX IMVI melanoma?
Response line: 7.4 µM

Prompt line: Hi! What's the reported TGI for FC(F)(F)c1ccc2nc(Sc3ccccn3)cnc2c1 on LOX IMVI melanoma?
Response line: > 100 µM
